# Tested on: K562
# test.protocol: NCI tumour cell line growth inhibition, 48 h
The source made the active and inactive calls. Rule as the data show it: active = GI50 up to about 1.1 µM and inactive = higher.
Return exactly one item of active, inactive

Check the results log: what was the call for `Cc1cn2c(/C=C3/C(=O)Nc4ccccc43)c(C)nc2s1` ?
active

Check the results log: what was the call for `O=C1c2ccccc2-c2nc(/C=C/c3ccccc3)cc3c2c1nc1ccccc13` ?
inactive

Check the results log: what was the call for CC1=CC2C(=O)N(c3ccccc3)C(=O)C2CC1n1[nH]c(=O)n(Cc2ccccc2)c1=O (centres undefined) ?
inactive

Check the results log: what was the call for `c1cc(NNc2cccc(-c3nnn[nH]3)c2)cc(-c2nnn[nH]2)c1` ?
inactive

====

# System: OVCAR-8
# test.protocol: NCI tumour cell line growth inhibition, 48 h
Calls of active or inactive are those of the source. Cut-off read from the data, not from the text of the source: active = GI50 up to about 1.1 µM and inactive = higher.
Assignment: determine reported GI50 for the given compounds.

Which GI50 reading was recorded for the compound COc1cc2c3c(c1OC)Oc1ccc(cc1)CC1c4c(cc(OC)c(OC)c4Oc4ccc(cc4)CC3N(C)CC2)CCN1C (stereo not given) ?
20.2 µM (inactive)

Which GI50 reading was recorded for the compound `CCOc1cc(/C=C/C=C/c2ccc(N(C)C)cc2)[s+]c2ccccc12` ?
25.6 µM (inactive)

Which GI50 reading was recorded for the compound COc1cc2c(cc1OC)[C@H]1C(COC(=O)Nc3ccccc3)CN1CC2 (stereo not given in full) ?
> 100 µM (inactive)

Which GI50 reading was recorded for the compound CN(CO)c1nc(N(C)CO)nc(N(C)CO)n1 [TRIMELAMOL] ?
14.5 µM (inactive)

Which GI50 reading was recorded for the compound `O=C1C(=O)N(c2ccc(Cl)c(Cl)c2)C(=O)C(=O)C1c1nc2ccccc2o1` ?
> 100 µM (inactive)

====

# System: EKVX
# test.protocol: NCI tumour cell line growth inhibition, 48 h
Active and inactive are the calls of the source. Rule as the data show it: active = GI50 up to about 1.1 µM and inactive = higher.
Return exactly one item of active, inactive

Check the results log: what was the call for `Cc1nc(Cl)c(Cl)c(Cl)n1` ?
active

Check the results log: what was the call for O=C1CCC2(c3ccc(Cl)cc3)Nc3ccccc3N12 (stereo not given) ?
inactive

Check the results log: what was the call for `O=C(Nc1cc(Cl)ccc1Cl)c1cc2ccccc2oc1=O` ?
inactive

Check the results log: what was the call for `S=C(c1c[nH]c2ccccc12)N1CCOCC1` ?
inactive

Check the results log: what was the call for COc1ccc(C2C3CCc4ccccc4C3=NN2S(=O)(=O)c2ccc(Cl)cc2)cc1 (stereo not given) ?
inactive

Check the results log: what was the call for CN1CCCC2(CCCc3ccccc32)C1 (stereo not given) ?
inactive

Check the results log: what was the call for `Cn1c(=O)c2nc(SCc3ccccn3)[nH]c2n(C)c1=S` ?
inactive

Check the results log: what was the call for `CNc1ccc2nc(-c3ccc(OC(=O)N(C)C)cc3)cn2c1` ?
inactive

Check the results log: what was the call for `CN(/N=C(\C(=O)O)c1ccccc1)C1=NCCCCN1` ?
inactive

Check the results log: what was the call for `CC(=O)Nc1nnc(S(C)(=O)=O)s1` ?
inactive

Check the results log: what was the call for CC1=C(Cl)C=CP(=O)(OC(C)C)C1 (stereo not given) ?
inactive

Check the results log: what was the call for `CC(=O)c1cc2c(s1)C(=O)c1scc(C(C)=O)c1C2=O` ?
active

Check the results log: what was the call for `COC(OC)c1cc2c(cc1C=O)OCO2` ?
inactive

Check the results log: what was the call for `O=C(c1ccc(Cl)cc1)c1ccc(OCCCOc2ccc(C(=O)c3ccc(Cl)cc3)cc2Cl)c(Cl)c1` ?
inactive

Check the results log: what was the call for COc1cc2c3c(c1OC)Oc1ccc(cc1)CC1c4c(cc(OC)c(OC)c4Oc4ccc(cc4)CC3N(C)CC2)CCN1C (stereo not given) ?
inactive

Check the results log: what was the call for O=C1N2CCc3c([nH]c4ccccc34)C23CC2CCCC12S3 (stereo not given) ?
inactive

Check the results log: what was the call for `Cc1ccc(C2=C(c3ccccc3)C(Br)(c3ccccc3)C(c3ccccc3)=C2c2ccc(C)cc2)cc1` ?
inactive

Check the results log: what was the call for CC[C@@]1(O)C[C@H](OC2CC(N(C)C)C(OC3CC(O)C(OC4CC(O)C(O)C(C)O4)C(C)O3)C(C)O2)c2c(cc3c(c2O)C(=O)c2c(O)ccc(O)c2C3=O)[C@H]1C(=O)OC (stereo not given in full) ?
active

Check the results log: what was the call for `O=C(c1cc(Cl)cc(Cl)c1)N(Cc1cccnc1)C(=S)N(Cc1cccnc1)C(=O)c1cc(Cl)cc(Cl)c1` ?
inactive

Check the results log: what was the call for O=C(O)CC(C(=O)O)C1c2ccccc2-c2ccccc21 (stereo not given) ?
inactive

Check the results log: what was the call for NC1=NN(c2ccccc2)C(=O)C1C(=O)CCC(=O)Nc1cccc(C(F)(F)F)c1 (stereo not given) ?
inactive

Check the results log: what was the call for COc1cccc(C2SCc3nc4ccccc4n32)c1 (stereo not given) ?
inactive

Check the results log: what was the call for `Cc1cc(S(=O)(=O)[N-]C(=C(C#N)C#N)[n+]2ccc(N(C)C)cc2)c(SCC(=O)O)cc1Cl` ?
inactive

Check the results log: what was the call for `S=P(N1CCCC1)(N1CC1)N1CC1` ?
inactive

Check the results log: what was the call for `O=C(O)c1[nH]c2c([N+](=O)[O-])cc([N+](=O)[O-])cc2c1C(=O)O` ?
inactive

Check the results log: what was the call for `O=[N+]([O-])O` ?
inactive

Check the results log: what was the call for `Cc1ccnc2[nH]c(-c3ccccc3)cc(=O)c12` ?
active

Check the results log: what was the call for COc1cc(C2c3cc4c(cc3OC(N3CCCCC3)C2C)OCO4)cc(OC)c1O (stereo not given) ?
inactive

Check the results log: what was the call for `O=C(Nc1nn(C(=O)c2ccc(Cl)cc2)c(=O)s1)c1ccc(Cl)cc1` ?
inactive

Check the results log: what was the call for `C/C(=N\N=C(/S)N(C)C)c1cccc[n+]1[O-]` ?
inactive

Check the results log: what was the call for `CNS(=O)(=O)NN(C)S(=O)(=O)c1ccc(Cl)cc1` ?
inactive

Check the results log: what was the call for N#CC12C(=O)N3C(=NC(c4ccco4)NC3c3ccco3)C1(C#N)C(c1ccco1)NC1=C2CCCC1 (stereo not given) ?
inactive

Check the results log: what was the call for `Cc1nc2ccccc2nc1NS(=O)(=O)c1ccc(N)cc1` ?
inactive

Check the results log: what was the call for CCOC(C)O[C@H]1C(=O)OCC1(C)C (stereo not given in full) ?
inactive

Check the results log: what was the call for `Cc1ccccc1C(=O)c1ccccc1O` ?
inactive

Check the results log: what was the call for `CCP(C)(=O)CC` ?
inactive

Check the results log: what was the call for `O=S(=O)(O)c1ccc(Nc2ccnc3cc(Cl)ccc23)cc1` ?
inactive

Check the results log: what was the call for `COc1ccc(C(=O)Cc2cc(OC)ccc2OC)cc1` ?
inactive

Check the results log: what was the call for `O=C(/C=C/c1ccccc1)C[C@@H](O)C[C@@H]1CC=CC(=O)O1` ?
inactive

Check the results log: what was the call for `Clc1ccc(-n2nnc(C3=NCCN3)c2-c2ccccc2)cc1` ?
inactive
